Test system: HEK-293T
procedure_text: Multiplex assay against HEK293T
Assay type: toxicity, cell-based
measurement_setup: human, 24 h, 10 µM, compound concentration 10 uM, replicate 2
Exercise: state measured Population Apoptotic (%) for each of the molecules provided.
Numbers only, in %.

compound_structure	Population Apoptotic (%)
c1ccc(-c2oc3ncnc(NC[C@@H]4CCCO4)c3c2-c2ccccc2)cc1	43
Cc1c(Nc2ccc(S(=O)(=O)N3CCN(C)CC3)cc2F)nc2ccc(Nc3cnn(C4CC4)c3)cn2c1=O	0
Cl.NC[C@@H]1O[C@H](C23CC4CC(CC(C4)C2)C3)Cc2c1ccc(O)c2O	39
CC(C)c1cc(Nc2nc(N3CCC[C@H](N)C3)ncc2C(N)=O)cc(C(C)C)n1	89

Provide reported Population Apoptotic (%) for each item, in the same order as listed.
1. CCCCN(CC)c1nc(C)nc2c1c(C)cn2-c1c(C)cc(C)cc1C.Cl
2. NC(=O)c1ccc2nc(-c3ccc(C4(N)CCC4)cc3)c(-c3ccccc3)n2n1

1: 29; 2: 6

Provide reported Population Apoptotic (%) for each item, in the same order as listed.
1. CCCc1cc(C)[nH]c(=O)c1CNC(=O)c1cc(-c2ccc(N3CCN(C(C)C)CC3)nc2)cc2c1cnn2C(C)C
2. C[C@@H](Oc1cc(-n2cnc3ccc(CN4CCN(C)CC4)cc32)sc1C(N)=O)c1ccccc1C(F)(F)F
3. N#CCNC(=O)c1ccc(-c2ccnc(Nc3ccc(N4CCOCC4)cc3)n2)cc1

1. 98
2. 86
3. 17

---

Tested on: U2OS
procedure_text: Multiplex assay against U2OS
Type: toxicity, cell-based
measurement_setup: human, 48 h, 10 µM, compound concentration 10 uM, replicate 2
parameter: Population Tubulin-Different-Phenotype (%)
Give bare numbers, in %.

Before answering, review these 5 worked examples.
compound	observed_measurement
c1ccc(-c2oc3ncnc(NC[C@@H]4CCCO4)c3c2-c2ccccc2)cc1	72
C=CC(=O)Nc1cc(-n2c(=O)ccc3cnc4ccc(-c5ccc(NS(C)(=O)=O)cc5)cc4c32)ccc1C	33
CCCCN(CC)c1nc(C)nc2c1c(C)cn2-c1c(C)cc(C)cc1C.Cl	12
N#Cc1cccc(C(=O)Nc2cc(-c3ccccc3)nn2-c2ccccc2)c1	97
Cc1c(Nc2ccc(S(=O)(=O)N3CCN(C)CC3)cc2F)nc2ccc(-c3cnn(C4CC4)c3)cn2c1=O	8

Provide reported Population Tubulin-Different-Phenotype (%) for each item, in the same order as listed.
1. CC(C)[C@H](CO)Nc1nc(Nc2cccc(Cl)c2)c2ncn(C(C)C)c2n1 [PURVALANOLA]
2. CC(Cc1ccc(O)c(O)c1)C(C)Cc1ccc(O)c(O)c1 (stereo not given) [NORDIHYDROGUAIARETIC ACID]
3. CN(c1cc(C(F)(F)F)nc(OCCC(=O)O)n1)c1cccc2c1CCC2
4. Cc1c(P(=S)(c2ccccc2)c2ccccc2)n2ccccc2[n+]1C/C=C/c1ccccc1.[Br-]
5. CC(/C=C1\SC(=S)N(CCCC(=O)Nc2ccc(C(=O)O)c(O)c2)C1=O)=C\c1ccccc1

1. 93
2. 77
3. 38
4. 75
5. 19

---

Tested on: Fibroblast
procedure_text: Multiplex assay against human fibroblast
Type: toxicity, cell-based
measurement_setup: 48 h, 10 µM, compound concentration 10 uM, replicate 1
Exercise: state measured Population Healthy Nuclei (%) for each of the compounds provided.
One number for each entry, in %.

compound	assay_system	observed_measurement
CC(Cc1ccc(O)c(O)c1)C(C)Cc1ccc(O)c(O)c1 (stereo not given) [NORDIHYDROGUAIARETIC ACID]	Fibroblast	52
N#CCNC(=O)c1ccc(-c2ccnc(Nc3ccc(N4CCOCC4)cc3)n2)cc1	Fibroblast	40
CC(C)[C@H](CO)Nc1nc(Nc2cccc(Cl)c2)c2ncn(C(C)C)c2n1	Fibroblast	49
Oc1cccc(-c2nc(N3CCOCC3)c3oc4ncccc4c3n2)c1	Fibroblast	43

Can you look up the measured Population Healthy Nuclei (%) of `CCCCN(CC)c1nc(C)nc2c1c(C)cn2-c1c(C)cc(C)cc1C.Cl` for me? 51

---

Tested on: Fibroblast
procedure_text: Multiplex assay against human fibroblast
Type: toxicity, cell-based
measurement_setup: 24 h, 1 µM, compound concentration 1 uM, replicate 1
parameter: Population Apoptotic (%)
Numbers only, in %.

Before answering, review these 5 worked examples.
compound	reading_unit	observed_measurement
CC[C@@H]1C(=O)N(C)c2cnc(Nc3ccc(C(=O)NC4CCN(C)CC4)cc3OC)nc2N1C1CCCC1	%	80
CC(C)[C@H](CO)Nc1nc(Nc2cccc(Cl)c2)c2ncn(C(C)C)c2n1	%	48
CCCc1cc(C)[nH]c(=O)c1CNC(=O)c1cc(-c2ccc(N3CCN(C(C)C)CC3)nc2)cc2c1cnn2C(C)C	%	31
CC[C@H](Nc1ncnc2[nH]cnc12)c1nc2cccc(F)c2c(=O)n1-c1ccccc1	%	59
CCCCCNC(=N)N/N=C/c1c[nH]c2ccc(OC)cc12.O=C(O)/C=C\C(=O)O [TEGASEROD MALEATE]	%	52

Provide reported Population Apoptotic (%) for each item, in the same order as listed.
1. Cc1c(Nc2ccc(S(=O)(=O)N3CCN(C)CC3)cc2F)nc2ccc(-c3cnn(C4CC4)c3)cn2c1=O
2. C=CC(=O)Nc1cc(-n2c(=O)ccc3cnc4ccc(-c5ccc(NS(C)(=O)=O)cc5)cc4c32)ccc1C
3. Oc1cccc(-c2nc(N3CCOCC3)c3oc4ncccc4c3n2)c1
4. N#CCNC(=O)c1ccc(-c2ccnc(Nc3ccc(N4CCOCC4)cc3)n2)cc1
5. COc1cc(Nc2ccnc3ccc(Br)cc23)cc(OC)c1OC
6. CN1C(=O)[C@@H](NC(=O)c2cc3ccccc3[nH]2)N=C(c2ccccc2)c2ccccc21 [DEVAZEPIDE]
7. CC(Cc1ccc(O)c(O)c1)C(C)Cc1ccc(O)c(O)c1 (configuration not stated) [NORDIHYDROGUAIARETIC ACID]
8. Cc1c(Nc2ccc(S(=O)(=O)N3CCN(C)CC3)cc2F)nc2ccc(Nc3cnn(C4CC4)c3)cn2c1=O

[85, 54, 64, 56, 76, 44, 50, 72]

---

Exercise: state measured Population Mitotic Cells (%) for each of the compounds provided.
Test system: HEK-293T
procedure_text: Multiplex assay against HEK293T
Type: toxicity, cell-based
measurement_setup: human, 48 h, 1 µM, compound concentration 1 uM, replicate 2
One number for each entry, in %.

compound	reading_unit	observed_measurement
Cc1c(P(=S)(c2ccccc2)c2ccccc2)n2ccccc2[n+]1C/C=C/c1ccccc1.[Br-]	%	8
C=CC(=O)Nc1cc(-n2c(=O)ccc3cnc4ccc(-c5ccc(NS(C)(=O)=O)cc5)cc4c32)ccc1C	%	90
CCCc1cc(C)[nH]c(=O)c1CNC(=O)c1cc(-c2ccc(N3CCN(C(C)C)CC3)nc2)cc2c1cnn2C(C)C	%	30
CCCCN(CC)c1nc(C)nc2c1c(C)cn2-c1c(C)cc(C)cc1C.Cl	%	84
CC(Cc1ccc(O)c(O)c1)C(C)Cc1ccc(O)c(O)c1 (stereo not drawn) [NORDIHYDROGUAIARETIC ACID]	%	85
CN(c1cc(C(F)(F)F)nc(OCCC(=O)O)n1)c1cccc2c1CCC2	%	92

Provide reported Population Mitotic Cells (%) for each item, in the same order as listed.
1. C[C@@H](Oc1cc(-n2cnc3ccc(CN4CCN(C)CC4)cc32)sc1C(N)=O)c1ccccc1C(F)(F)F
2. Oc1cccc(-c2nc(N3CCOCC3)c3oc4ncccc4c3n2)c1

32
50

Provide reported Population Mitotic Cells (%) for each item, in the same order as listed.
1. Cl.NC[C@@H]1O[C@H](C23CC4CC(CC(C4)C2)C3)Cc2c1ccc(O)c2O
2. CC(C)C[C@H](NC(=O)[C@H](Cc1ccccc1)NC(=O)CNC(=O)CNC(=O)[C@@H](N)Cc1ccc(O)cc1)C(=O)O
3. Cc1ccc(S(=O)(=O)NC2c3ccccc3Oc3ccccc32)cc1

1. 92
2. 90
3. 86

Provide reported Population Mitotic Cells (%) for each item, in the same order as listed.
1. N#CCNC(=O)c1ccc(-c2ccnc(Nc3ccc(N4CCOCC4)cc3)n2)cc1
2. CN1C(=O)[C@@H](NC(=O)c2cc3ccccc3[nH]2)N=C(c2ccccc2)c2ccccc21 [DEVAZEPIDE]

[85, 90]

Provide reported Population Mitotic Cells (%) for each item, in the same order as listed.
1. CCCCCNC(=N)N/N=C/c1c[nH]c2ccc(OC)cc12.O=C(O)/C=C\C(=O)O [TEGASEROD MALEATE]
2. CC(C)c1cc(Nc2nc(N3CCC[C@H](N)C3)ncc2C(N)=O)cc(C(C)C)n1
3. CC(C)[C@H](CO)Nc1nc(Nc2cccc(Cl)c2)c2ncn(C(C)C)c2n1
4. N#Cc1cccc(C(=O)Nc2cc(-c3ccccc3)nn2-c2ccccc2)c1

1. 66
2. 33
3. 86
4. 80

Hi! What's the reported Population Mitotic Cells (%) for `CC(/C=C1\SC(=S)N(CCCC(=O)Nc2ccc(C(=O)O)c(O)c2)C1=O)=C\c1ccccc1` on HEK-293T? 96

Provenance of the data: ChEMBL document CHEMBL4689842
